# System: T1, human BCMA expressed on cells (human, UniProt Q02223 1-184)
# T1 construct: the cell line is named under assay; also called wildtype human BCMA
# T1 sequence: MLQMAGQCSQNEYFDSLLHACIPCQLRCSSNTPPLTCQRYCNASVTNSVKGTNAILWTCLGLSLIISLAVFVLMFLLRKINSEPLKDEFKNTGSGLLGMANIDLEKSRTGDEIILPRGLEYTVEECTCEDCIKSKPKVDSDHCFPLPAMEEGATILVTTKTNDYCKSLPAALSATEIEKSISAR
# Assay procedure: flow cytometry, H929 cells (BCMA+)
Values of EC50 strictly less than 0.1 nM map to Y, and values of at least 0.1 nM map to N.

Examples from the recorded data:
Here's an entry: 1C8-6A3 hIgG1 (antibody, V domains shown, also called [94]; hu1C8) VH: QVQLVQSGAEVKKPGASVKVSCKASGYTFTNYVMHWVKQKPGQGLEWMGYILPYNDGTKYAQKFQGKVTMTSDKSTSTVYMELSSLTSEDTAVYYCARYDYEGSFDYWGQGTLVTVSS VL: DIQMTQSPSSLSASVGDRVTITCRASQDISNYLNWYQQKPGKAPKLLMCYTSRLHSGVPSRFSGSGSGTDFTLTISSLEQEDFATYYCQQGNTFPPTFGGGTKVEIKR . Is its EC50 below 0.1 nM?
N

Here's an entry: 1C8-507 hIgG1 (antibody, V domains shown, also called [92]; hu1C8-507) VH: QVQLVQSGAEVKKPGASVKVSCKASGYTFRNYVMHWVKQKPGQGLEWMGWILPYNDGTKYAQKFQGKVTMTSDKSTSTVYMELSSLTSEDTAVYYCARYDYEGSFDYWGQGTLVTVSS VL: DIQMTQSPSSLSASVGDRVTITCRASQDISNYLNWYQQKPGKAPKLLMRYTSLLHSGVPSRFSGSGSGTDFTLTISSLEQEDFATYYCQQGNTFPPTFGGGTKVEIKR . Is its EC50 below 0.1 nM?
Y

Here's an entry: 1C8-610 hIgG1 (antibody, V domains shown, also called [93]; hu1C8-610) VH: QVQLVQSGAEVKKPGASVKVSCKASGYTFTNYVMFWVKQKPGQGLEWMGYITPYNDGTKYAQKFQGKVTMTSDKSTSTVYMELSSLTSEDTAVYYCARYDYEGSFDYWGQGTLVTVSS VL: DIQMTQSPSSLSASVGDRVTITCRASQDISNYLNWYQQKPGKAPKLLMRYTSRFHSGVPSRFSGSGSGTDFTLTISSLEQEDFATYYCQQGNTFPPTSGGGTKVEIKR . Is its EC50 below 0.1 nM?
Y

Here's an entry: J6M0 (antibody, V domains shown, also called J6M0-hIgG1; anti-BCMA) VH: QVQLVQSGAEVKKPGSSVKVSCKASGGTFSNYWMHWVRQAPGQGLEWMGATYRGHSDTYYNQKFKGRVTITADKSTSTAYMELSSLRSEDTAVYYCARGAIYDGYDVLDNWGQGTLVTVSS VL: DIQMTQSPSSLSASVGDRVTITCSASQDISNYLNWYQQKPGKAPKLLIYYTSNLHSGVPSRFSGSGSGTDFTLTISSLQPEDFATYYCQQYRKLPWTFGQGTKLEIK . Is its EC50 below 0.1 nM?
N

More entries:
Here's an entry: 1C8-403 hIgG1 (antibody, V domains shown, also called [91]; hu1C8-403) VH: QVQLVQSGAEVKKPGASVKVSCKASGYTFTNYVMHWVKQKPGQGLEWMGYILPYNDGTKYAQKFQGKVTMTSDKSTSTVYMELSSLTSEDTAVYYCARYDWEGSFDYWGQGTLVTVSS VL: DIQMTQSPSSLSASVGDRVTITCRASSDISNYLNWYQQKPGKAPKLLMCYTSRLHSGVPSRFSGSGSGTDFTLTISSLEQEDFATYYCQQGNTFPPTFGGGTKVEIKR . Is its EC50 below 0.1 nM?
N
